Tested on: Mus musculus
Assay: Toxicity in ip dosed C3H X DBA2 F1 hybrid mouse […] with mouse L1210 cells on day 0 and dosed once daily on days 1 to 5 measured after 50 days
Format: organism-based
Conditions: in vivo, 1200 h
# if measured LD10 < 40 mg/kg: 1 (yes)  # else: 0 (no)

Q) Could you please tell me whether LD10 recorded for CCC[n+]1cccc(NC(=O)c2ccc(NC(=O)c3ccc(C(=O)Nc4ccc(C(=O)Nc5ccc[n+](CCC)c5)cc4OC)cc3)c(OC)c2)c1.Cc1ccc(S(=O)(=O)[O-])cc1.Cc1ccc(S(=O)(=O)[O-])cc1 is less than 40 mg/kg?
A) 0 (no)

Q) Field entry: C[n+]1ccc(Nc2ccc(C(=O)Nc3ccc(Nc4c5ccccc5[n+](C)c5cc(N)ccc45)cc3)cc2)cc1.[Cl-].[Cl-]
A) 1 (yes)

Q) Field entry: CCC[n+]1cccc2cc(NC(=O)c3ccc(C(=O)Nc4ccc(NC(=O)c5ccc6c(ccc[n+]6CCC)c5)cc4)cc3)ccc21.Cc1ccc(S(=O)(=O)[O-])cc1.Cc1ccc(S(=O)(=O)[O-])cc1
A) 0 (no)

Q) Field entry: CCCC[n+]1cccc(C(=O)Nc2ccc(NC(=O)c3ccc(C(=O)Nc4ccc5c(ccc[n+]5CCCC)c4)cc3)cc2)c1.Cc1ccc(S(=O)(=O)[O-])cc1.Cc1ccc(S(=O)(=O)[O-])cc1
A) 1 (yes)

Q) Field entry: CC[n+]1ccccc1Nc1ccc(NC(=O)c2ccc(C(=O)Nc3ccc(Nc4cccc[n+]4CC)cc3)cc2)cc1.[I-].[I-]
A) 1 (yes)

Q) Field entry: C[n+]1ccc(Nc2ccc(NC(=O)/C=C/c3ccc(/C=C/C(=O)Nc4ccc(Nc5cc[n+](C)cc5)cc4)cc3)cc2)cc1.Cc1ccc(S(=O)(=O)[O-])cc1.Cc1ccc(S(=O)(=O)[O-])cc1
A) 1 (yes)

* * *

Tested on: L1210
Assay: Antitumor activity against mouse L1210 cells […] in ip dosed C3H X DBA2 F1 hybrid mouse on day 0 and dosed once daily on days 1 to 5 assessed as increase in life span relative to control
Format: functional
Hi there, I'd appreciate the recorded D40 for every entry that follows.
Answer with a number only, understood to be in mg/kg.

Q) # value lookup — system L1210, readout D40, item C[n+]1ccc(Nc2ccc(NC(=O)c3ccc(Nc4cc[n+](C)c5ccccc45)cc3)cc2N)cc1.[I-].[I-]
A) 2.8

Q) Field entry: C[n+]1cc(-c2ccc(NC(=O)c3ccc(C(=O)Nc4ccc(-c5c[n+](C)c(N)nc5N)cc4)cc3)cc2)c(N)nc1N.Cc1ccc(S(=O)(=O)[O-])cc1.Cc1ccc(S(=O)(=O)[O-])cc1
A) 1.5

Q) Field entry: CC[n+]1cccc(C(=O)Nc2ccc(NC(=O)c3ccc(C(=O)Nc4ccc5c(ccc[n+]5CC)c4)cc3)cc2)c1.Cc1ccc(S(=O)(=O)[O-])cc1.Cc1ccc(S(=O)(=O)[O-])cc1
A) 3.1

* * *

System: L1210
Experiment: Antitumor activity against mouse L1210 cells […] in ip dosed C3H X DBA2 F1 hybrid mouse on day 0 and dosed once daily on days 1 to 5 assessed as increase in life span relative to control
Type: functional
Hi there, I'd appreciate the recorded log10 of D40 for every entry that follows.
Each number you see is log10 of D40, and the unit inside the log is mg/kg.

Q) Can you look up the measured log10 of D40 of C[n+]1ccc(Nc2ccc(NC(=O)c3ccc(Nc4cc[n+](C)c5cc([N+](=O)[O-])ccc45)cc3)cc2)cc1.Cc1ccc(S(=O)(=O)[O-])cc1.Cc1ccc(S(=O)(=O)[O-])cc1 for me?
A) 0.48

Q) Field entry: C[n+]1ccc(Nc2ccc(C(=O)Nc3ccc(Nc4cc[n+](C)c5ccc(N)cc45)c(N)c3)cc2)cc1.Cc1ccc(S(=O)(=O)[O-])cc1.Cc1ccc(S(=O)(=O)[O-])cc1
A) 0.04

Q) Field entry: CC[n+]1ccc(Nc2ccc(NC(=O)/C=C/c3ccc(C(=O)Nc4ccc(Nc5cc[n+](CC)cc5)c(N)c4)cc3)cc2N)cc1.[Br-].[Br-]
A) 0.15

Q) Field entry: C[n+]1ccc(Nc2ccc(NC(=O)c3ccc(Nc4cc[n+](C)c5cc(N)ccc45)cc3N)cc2)cc1.[Br-].[Br-]
A) 0.08

Q) Field entry: C[n+]1cccc2ccc(NC(=O)c3ccc(-c4ccc(-c5ccc(-c6ccc(C(=O)Nc7ccc8ccc[n+](C)c8c7)cc6)cc5)cc4)cc3)cc21.Cc1ccc(S(=O)(=O)[O-])cc1.Cc1ccc(S(=O)(=O)[O-])cc1
A) 1.30

Q) Field entry: C[n+]1ccc(Nc2ccc(NC(=O)c3ccc(/C=C/C4=NCCCN4)cc3)cc2)c2cc(N)ccc21.Cc1ccc(S(=O)(=O)O)cc1.Cc1ccc(S(=O)(=O)[O-])cc1
A) 0.30

Q) Field entry: Cc1cc(Nc2ccc(NC(=O)c3ccc(C(=O)Nc4ccc(Nc5cc(C)[n+](C)c(N)n5)cc4)cc3)cc2)nc(N)[n+]1C.Cc1ccc(S(=O)(=O)[O-])cc1.Cc1ccc(S(=O)(=O)[O-])cc1
A) 1.88

Q) Field entry: C[n+]1cccc2cc(NC(=O)c3ccc(C(=O)Nc4ccc(NC(=O)c5ccc6c(ccc[n+]6C)c5)cc4)cc3)ccc21.Cc1ccc(S(=O)(=O)[O-])cc1.Cc1ccc(S(=O)(=O)[O-])cc1
A) 1.90

Q) Field entry: C/C(=N\NC(=N)N)c1ccc(NC(=O)c2ccc(Nc3cc[n+](C)c4cc(N)ccc34)cc2)cc1.Cc1ccc(S(=O)(=O)O)cc1.Cc1ccc(S(=O)(=O)[O-])cc1
A) 0.60

Q) Field entry: C[n+]1cc(-c2ccc(NC(=O)/C=C/c3ccc(C(=O)Nc4ccc(-c5c[n+](C)c(N)nc5N)cc4)cc3)cc2)c(N)nc1N.Cc1ccc(S(=O)(=O)[O-])cc1.Cc1ccc(S(=O)(=O)[O-])cc1
A) 1.03

Q) Field entry: CC[n+]1cccc(NC(=O)c2ccc(NC(=O)c3ccc(C(=O)Nc4ccc5c(ccc[n+]5CC)c4)cc3)cc2)c1.Cc1ccc(S(=O)(=O)[O-])cc1.Cc1ccc(S(=O)(=O)[O-])cc1
A) 0.36

* * *

Species on record: Bos taurus
Experiment: Displacement of ethidium from calf thymus DNA by fluorimetric method
measuredAttribute: C50 (µM)
Answer with a number only, understood to be in µM.

Q) Can you look up the measured C50 of C[n+]1ccc(Nc2ccc(NC(=O)c3ccc(Nc4nc[n+](C)c5ccc(N)cc45)cc3)cc2)cc1.Cc1ccc(S(=O)(=O)[O-])cc1.Cc1ccc(S(=O)(=O)[O-])cc1 for me?
A) 0.88

Q) Field entry: CCC[n+]1ccc(Nc2ccc(NC(=O)c3ccc(Nc4cc[n+](CCC)c5ccc(N)cc45)cc3)cc2)cc1.[Br-].[Br-]
A) 0.68

Q) Field entry: Br.C/C(=N\NC(=N)N)c1ccc(NC(=O)c2ccc(Nc3cc[n+](C)c4ccc(N)cc34)cc2)cc1.[Br-]
A) 0.4

Q) Field entry: C[n+]1cccc(NC(=O)c2ccc(NC(=O)c3cccc(C(=O)Nc4ccc(C(=O)Nc5ccc[n+](C)c5)cc4)c3)cc2)c1.Cc1ccc(S(=O)(=O)[O-])cc1.Cc1ccc(S(=O)(=O)[O-])cc1
A) 0.9

* * *

System: Mus musculus
Test: Toxicity in ip dosed C3H X DBA2 F1 hybrid mouse […] with mouse L1210 cells on day 0 and dosed once daily on days 1 to 5 measured after 50 days
Type: organism-based
Details: in vivo, 1200 h
measuredAttribute: LD10 (mg/kg)
Answer with a number only, understood to be in mg/kg.

Q) Can you look up the measured LD10 of CCCC[n+]1cccc2cc(NC(=O)c3ccc(NC(=O)c4ccc(C(=O)Nc5ccc6c(ccc[n+]6CCCC)c5)cc4)cc3)ccc21.Cc1ccc(S(=O)(=O)[O-])cc1.Cc1ccc(S(=O)(=O)[O-])cc1 for me?
A) 100

Q) Field entry: C[n+]1cccc(NC(=O)c2ccc(NC(=O)c3ccc(C(=O)Nc4ccc(NC(=N)NC(=N)N)cc4)cc3)cc2)c1.I.[I-]
A) 11

Q) Field entry: CCC[n+]1cccc(NC(=O)c2ccc(NC(=O)C34CCC(C(=O)Nc5ccc(C(=O)Nc6ccc[n+](CCC)c6)cc5)(CC3)CC4)cc2)c1.Cc1ccc(S(=O)(=O)[O-])cc1.Cc1ccc(S(=O)(=O)[O-])cc1
A) 30

Q) Field entry: C[n+]1ccc(-c2ccc(-c3ccc(-c4ccc(/N=N/Nc5ccc(C(=O)Nc6ccc(-c7ccc(-c8ccc(-c9cc[n+](C)cc9)cc8)cc7)cc6)cc5)cc4)cc3)cc2)cc1.Cc1ccc(S(=O)(=O)[O-])cc1.Cc1ccc(S(=O)(=O)[O-])cc1
A) 6

Q) Field entry: CC[n+]1cccc(-c2ccc(NC(=O)c3ccc(C(=O)Nc4ccc(-c5ccc(-c6ccc(-c7ccc[n+](CC)c7)cc6)cc5)cc4)cc3)cc2)c1.Cc1ccc(S(=O)(=O)[O-])cc1.Cc1ccc(S(=O)(=O)[O-])cc1
A) 43

Q) Field entry: CC[n+]1cccc(NC(=O)c2ccc(NC(=O)c3ccc(C(=O)Nc4ccc(C(=O)Nc5ccc[n+](CC)c5)cc4)c(Cl)c3)cc2)c1.Cc1ccc(S(=O)(=O)[O-])cc1.Cc1ccc(S(=O)(=O)[O-])cc1
A) 29

Q) Field entry: C[n+]1ccc(Nc2ccc(NC(=O)/C=C/c3ccc(C(=O)Nc4ccc(Nc5cc[n+](C)cc5)c(N)c4)cc3)cc2N)cc1.Cc1ccc(S(=O)(=O)[O-])cc1.Cc1ccc(S(=O)(=O)[O-])cc1
A) 6.7

Q) Field entry: C[n+]1ccc(Nc2ccc(C(=O)Nc3ccc(Nc4cc[n+](C)c5ccc(N)cc45)c(N)c3)cc2)cc1.Cc1ccc(S(=O)(=O)[O-])cc1.Cc1ccc(S(=O)(=O)[O-])cc1
A) 9

Q) Field entry: CCC[n+]1cccc2cc(NC(=O)c3ccc(NC(=O)c4ccc(C(=O)Nc5ccc6c(ccc[n+]6CCC)c5)cc4)cc3)ccc21.Cc1ccc(S(=O)(=O)[O-])cc1.Cc1ccc(S(=O)(=O)[O-])cc1
A) 95

Q) Field entry: C[n+]1ccc(Nc2ccc(NC(=O)c3ccc(Nc4cc[n+](C)c5c(N)cccc45)cc3)cc2)cc1.[I-].[I-]
A) 60

Q) Field entry: C[n+]1cc(-c2ccc(NC(=O)c3ccc(C(=O)Nc4ccc(-c5c[n+](C)c(N)nc5N)cc4)cc3)cc2)c(N)nc1N.Cc1ccc(S(=O)(=O)[O-])cc1.Cc1ccc(S(=O)(=O)[O-])cc1
A) 12
